- Test system: CP265
- Assay Details: qHTS profiling for inhibitors of Plasmodium falciparum proliferation (AID 504749); also: nearly all actives have a fitted effect of over 60% in size
- Test Context: P. falciparum in erythrocytes, SYBR Green DNA, 72 h; series mostly up to 28.7 µM
Inconclusive results are not listed. Active and inactive are the calls of the source. Calls follow the shape of the dose curve; as a rule, active = well fitted inhibition curve with a large enough effect; inconclusive = small, poorly fitted or top-dose-only effect; inactive = flat fitted curve, though single readings scatter.
Your response should consist of one outcome taken from active, inactive

[[record]]
molecule = "CCCCCCCCCCCC(=O)OCC(O)C1OCC(O)C1O (stereo unspecified)"
tested_on = "CP265"
label_value = "inactive"

[[record]]
molecule = "CCCCCCCCCCCCCCCC(=O)OC[C@H](O)[C@H]1OC[C@@H](O)[C@@H]1O"
tested_on = "CP265"
label_value = "inactive"

[[record]]
molecule = "C[C@]12CC[C@@H]3c4ccc(O)cc4CC[C@H]3[C@@H]1CCC2OC(=O)CCC1CCCC1 (stereo partly specified)"
tested_on = "CP265"
label_value = "inactive"

[[record]]
molecule = "CC(C)C(=O)OCC(=O)[C@@]12OC(C3CCCCC3)O[C@@H]1CC1C3CCC4=CC(=O)C=C[C@]4(C)C3[C@@H](O)C[C@@]12C (stereo partly specified)"
tested_on = "CP265"
label_value = "active"

[[record]]
molecule = "OCC(O)C(O)C(O)C(O)CO (stereo unspecified)"
tested_on = "CP265"
label_value = "inactive"

[[record]]
molecule = "C/C1=C2/[N-]C(C(CC(N)=O)[C@@]2(C)CCC(=O)NCC(C)OP(=O)([O-])O[C@H]2[C@@H](O)[C@@H](n3cnc4cc(C)c(C)cc43)O[C@@H]2CO)[C@]2(C)N=C(/C(C)=C3N=C(/C=C4N=C1C(CCC(N)=O)C\\4(C)C)[C@@H](CCC(N)=O)[C@]\\3(C)CC(N)=O)[C@@H](CCC(N)=O)[C@]2(C)CC(N)=O.CC(=O)O.[Co] (stereo partly specified)"
tested_on = "CP265"
label_value = "inactive"


q: Please let me know the test result on file for C=C[C@H]1CN2CCC1C[C@H]2[C@H](O)c1ccnc2ccc(OC)cc12 (stereo partly specified) .
a: active

q: Further, for CC1(C)O[C@@H]2C[C@H]3[C@@H]4CCC5=CC(=O)C=C[C@]5(C)[C@H]4C(O)C[C@]3(C)[C@]2(C(=O)CO)O1 (stereo partly specified) ?
a: inactive

q: Another molecule to check: C=NC(C(=O)NC1C(=O)N2C1SC(C)(C)C2C(=O)O)c1ccccc1 (stereo unspecified)
a: inactive

---

- Assay Details: AP1 Signaling Pathway (AID 357);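 also: ME-180 reporter cells stimulated with EGF at its EC50 level; % is scaled to controls: 0 for no effect and ±100 for the full control effect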
- Test Context: ME-180 (cervical carcinoma) AP-1-bla reporter, EGF-induced, beta-lactamase ratio, 5 h; at 17.2 µM (top of the series) unless noted
Inconclusive results are not listed. Calls of active or inactive are those of the source. Calls follow the shape of the dose curve; as a rule, active = well fitted curve in either direction with a large enough effect (not every such curve was filed as active); inconclusive = small, poorly fitted or top-dose-only effect, or another doubt; inactive = flat fitted curve, though single readings scatter.
Measured Quantity: activity change, negative = inhibition

# count of solved cases: 4
[[record]]
structure_as_smiles = "Cc1cccc(OCC(=O)N2CCC(N3CCOCC3)CC2)c1"
value_observed = "-0.218% (inactive)"

[[record]]
structure_as_smiles = "Cn1c(=O)[nH]c(=O)c2c1nc(Br)n2CCSc1ncccn1"
value_observed = "5.72% (inactive)"

[[record]]
structure_as_smiles = "Clc1ccc(-c2nnc3sc(Cc4cccs4)nn23)c(Cl)c1"
value_observed = "-25% (inactive)"

[[record]]
structure_as_smiles = "CC(C)OC(=O)c1sc2nc3c(cc2c1N)C(=O)CCC3"
value_observed = "-5.75% (inactive)"


q: Given the entry `O=c1c2c3c(sc2nc2n1CCCS2)CCCC3` , report its measured activity change, negative = inhibition.
a: -22.8% (inactive)

q: Note, next up: `O=C(Nc1ccccn1)c1ccc(=O)[nH]n1`
a: -7.67% (inactive)

q: Same question, `O=C(CCC1CCCC1)N1CCC(N2CCN(c3ccccc3)CC2)CC1` this time
a: -5.6% (inactive)

q: Then what about the molecule `Clc1ccc(C(c2ccc(Cl)cc2)n2cc[n+](C[C@@H](OCc3ccc(Cl)cc3Cl)c3ccc(Cl)cc3Cl)c2)cc1` ?
a: -7.48% [at 38 µM] (inactive)

q: And what about the molecule `N#Cc1nc(-c2cccs2)oc1NCCN1CCOCC1` ?
a: -3.9% (inactive)

q: Here is the next molecule: `CCOC(=O)c1ccc(NC(=O)Cn2nnc3ccccc32)cc1`
a: -12.4% (inactive)

q: Note, next up: `Cc1ccnc(N2CCN(c3c4c(c(C#N)c5nc6ccccc6n35)CCC4)CC2)c1`
a: -8.81% (inactive)
